The measured values listed here are drawn from ChEMBL document CHEMBL1140940.

# assay.name: Metabolic stability in human liver microsomes after 10 mins
# Format: ADME, Microsome
# condition.info: read-out: Stability
# label = Satisfied if remaining at 10 min < 80% else Not satisfied

{"molecule": "CCc1ccc(-n2cc(C(=O)NOC)c(=O)c3cnc(Nc4ccc(C5CCN(C)CC5)cc4)nc32)cc1", "assigned.category": "Satisfied"}
{"molecule": "CONC(=O)c1cn(-c2ccc3c(c2)CCC3)c2nc(Nc3ccc(C4CCN(CC(=O)O)CC4)cc3)ncc2c1=O", "assigned.category": "Not satisfied"}
{"molecule": "CONC(=O)c1cn(-c2ccc3c(c2)CCC3)c2nc(Nc3ccc(C4CCN(C)CC4(F)F)cc3)ncc2c1=O (stereo not given)", "assigned.category": "Satisfied"}
{"molecule": "CONC(=O)c1cn(-c2ccc3c(c2)CCC3)c2nc(Nc3ccc(C4CCNCC4)cc3)ncc2c1=O", "assigned.category": "Not satisfied"}
